Assay: in vitro
Type: cell-based, human
Conditions: human, CC50 A549
Procedure: Cytotoxicity—Cytotoxicity assays were carried out using human lung carcinoma cell line A549, as described (Chen et al., “Selective Inhibition of the West Nile Virus Methyltransferase by Nucleoside Analogs,” Antiviral Research 97(3):232-239 (2013), which is hereby incorporated by reference in its entirety). Briefly, the A549 cells (5×10^3) were incubated with/without compounds in a 96-well plate at 37° C. for 48 h. […]
Catalogue of compounds with associated CC50 at 48 h
property_measured: CC50 at 48 h (µM)

>>> observed_measurement("O=C(Nc1cc(F)cc(F)c1)c1nnsc1S(=O)(=O)c1ccc(Cl)cc1 [JMX1038]")
54.2
>>> observed_measurement("O=C(Nc1cc(F)c(F)c(F)c1)c1nnsc1[S+]([O-])c1ccc(Cl)cc1 (stereo not drawn) [JMX1044-2]")
47.5
>>> observed_measurement("O=C(Nc1ccc(F)cc1)c1nnsc1Sc1ccc(Cl)cc1 [JMX0564]")
418
>>> observed_measurement("O=C(Nc1ccc(Cl)c(F)c1)c1nnsc1[S+]([O-])c1ccc(Cl)cc1 (stereo not drawn) [JMX1046-2]")
149
>>> observed_measurement("O=C(Nc1ccc(Cl)c(F)c1)c1nnsc1S(=O)(=O)c1ccc(Cl)cc1 [JMX1046]")
145
>>> observed_measurement("O=C(Nc1ccc(F)cc1)c1nnsc1S(=O)(=O)c1ccc(Cl)cc1Cl [JMX1059]")
68.1
>>> observed_measurement("O=C(Nc1cc(C(F)(F)F)cc(C(F)(F)F)c1)c1nnsc1S(=O)(=O)c1ccc(Cl)cc1 [JMX1041]")
66.7
>>> observed_measurement("O=C(Nc1ccc(Cl)cc1)c1nnsc1Sc1ccc(Cl)cc1 [JMX0570]")
83.7
>>> observed_measurement("O=C(Nc1ccc(C(F)(F)F)cc1)c1nnsc1Sc1ccc(Cl)cc1 [JMX0575]")
271
>>> observed_measurement("O=C(Nc1ccc(F)c(Cl)c1)c1nnsc1S(=O)(=O)c1ccc(Cl)cc1 [JMX1037]")
63.2
>>> observed_measurement("O=C(Nc1cc(F)cc(Cl)c1)c1nnsc1S(=O)(=O)c1ccc(Cl)cc1 [JMX1036]")
70.9
>>> observed_measurement("O=C(Nc1ccc(F)c(F)c1)c1ncsc1S(=O)(=O)c1ccc(Cl)cc1 [JMX0520]")
81.6
